System: RARb:RXRa (NR concentration 270 nM, RXRa partner concentration 90 nM)
test: PBM binding z-score (relative to random genomic background probes); higher = stronger binding; sequences stand for … in GC…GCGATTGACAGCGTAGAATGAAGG
recorded endpoint: PBM binding z-score
Reply: number alone, nothing else.

INSERT INTO assay_data (polymer_sequence, assay_target, readout_number) VALUES
  ('CAAACTAGGTCACGAAAGGTCAAAGTCGAATGAC', 'RARb:RXRa (NR concentration 270 nM, RXRa partner concentration 90 nM)', 5.84),
  ('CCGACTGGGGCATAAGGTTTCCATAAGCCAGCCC', 'RARb:RXRa (NR concentration 270 nM, RXRa partner concentration 90 nM)', 0.514),
  ('GCGACTGGGGCAAAGCATGTTACCATAAGGTTGG', 'RARb:RXRa (NR concentration 270 nM, RXRa partner concentration 90 nM)', 0.551),
  ('TTACCAAGTTGAAAGGTCGTTGATGCACGCCTTG', 'RARb:RXRa (NR concentration 270 nM, RXRa partner concentration 90 nM)', 2.34),
  ('TAGCCTAGGTCAGATCAGGCCAGTATACGCTATA', 'RARb:RXRa (NR concentration 270 nM, RXRa partner concentration 90 nM)', 2.93),
  ('GGCACGAGGGCAAAGTTGATAGCATCTGTCGACG', 'RARb:RXRa (NR concentration 270 nM, RXRa partner concentration 90 nM)', 2.54);

Reported PBM binding z-score for TCATCTAGGTAAAGGTGAAAGTCGAACGATATGA : what is it? 2.05

Same read-out for GCGACTGGGGCTAAGCAGGTTACCATAAGGTTGG ? 0.544

Same read-out for ACAGACAGGTGCGTGAAGGTAACTCAGCTGGACG ? -0.307
